Attribution: paper PMC5137443

Target: T1, POT1 (Homo sapiens, UniProt Q9NUX5 1-634)
T1 sequence: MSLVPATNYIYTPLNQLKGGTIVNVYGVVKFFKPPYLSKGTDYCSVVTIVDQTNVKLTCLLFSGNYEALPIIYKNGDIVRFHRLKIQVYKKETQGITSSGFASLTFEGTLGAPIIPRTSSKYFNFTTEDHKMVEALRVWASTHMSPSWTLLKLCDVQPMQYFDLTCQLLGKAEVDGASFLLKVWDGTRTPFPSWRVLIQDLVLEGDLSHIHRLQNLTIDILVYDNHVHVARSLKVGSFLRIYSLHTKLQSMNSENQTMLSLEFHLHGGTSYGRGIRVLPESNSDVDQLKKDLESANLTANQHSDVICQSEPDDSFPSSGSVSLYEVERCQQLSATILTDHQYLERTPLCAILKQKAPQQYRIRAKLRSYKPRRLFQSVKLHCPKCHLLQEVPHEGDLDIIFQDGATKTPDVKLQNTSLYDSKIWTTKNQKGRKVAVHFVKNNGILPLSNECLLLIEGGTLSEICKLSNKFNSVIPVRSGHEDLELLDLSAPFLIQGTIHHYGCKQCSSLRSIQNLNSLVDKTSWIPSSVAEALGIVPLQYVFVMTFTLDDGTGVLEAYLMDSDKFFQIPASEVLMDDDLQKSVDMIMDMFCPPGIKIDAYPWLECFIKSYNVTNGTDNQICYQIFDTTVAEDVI
Assay: filter binding
Readout Label: pKd
The read-out pKd is expressed as -log10 of concentration in moles per litre.

Entry GGTTAGGGTTAG (ssDNA) [hT12wt, d(GGTTAG)2] ; pKd = 7.42
